System: radish
assay_comment: Plant activating effect, foliar application, radish
Assay type: in vivo
stated_conditions: 1 ppm in tap water; 21 days; 12 seeds
measure_name: plants judged 0: Abnormality was not found on the leaf surface (plants)
Just the number in plants, nothing appended.

Please review the following examples before continuing.
Field plants judged 0: Abnormality was not found on the leaf surface (system: radish) for entry Cc1ccc(S(=O)(=O)O)cc1.NCC(=O)CCC(=O)O [5-aminolevulinic acid p-toluenesulfonate, 5-aminolevulinic Acid p-toluenesulfonate] = 6

Field plants judged 0: Abnormality was not found on the leaf surface (system: radish) for entry NCC(=O)CCC(=O)O.O=[N+]([O-])O [5-aminolevulinic acid nitrate, 5-aminolevulinic Acid Nitrate] = 5

Field plants judged 0: Abnormality was not found on the leaf surface (system: radish) for entry Cl.NCC(=O)CCC(=O)O [5-aminolevulinic acid hydrochloride, reference compound] = 4

# context switch: different molecule, same plants judged 0: Abnormality was not found on the leaf surface
Field plants judged 0: Abnormality was not found on the leaf surface (system: radish) for entry O=[N+]([O-])[O-].[Na+] [sodium nitrate] = 2

* * *

System: radish
assay_comment: Plant activating effect, foliar application, radish
Assay type: in vivo
stated_conditions: 10 ppm in tap water; 21 days; 12 seeds
Recorded plants judged 2: A necrotic region was found on the leaf surface, one value per entry.

Per the record, O=[N+]([O-])[O-].[Na+] [sodium nitrate] has plants judged 2: A necrotic region was found on the leaf surface of 6 plants

Per the record, Cc1ccc(S(=O)(=O)O)cc1 [p-toluenesulfonic acid] has plants judged 2: A necrotic region was found on the leaf surface of 9 plants

Per the record, NCC(=O)CCC(=O)O.O=[N+]([O-])O [5-aminolevulinic acid nitrate, 5-aminolevulinic Acid Nitrate] has plants judged 2: A necrotic region was found on the leaf surface of 1 plant^ plants

Per the record, Cc1ccc(S(=O)(=O)O)cc1.NCC(=O)CCC(=O)O [5-aminolevulinic acid p-toluenesulfonate, 5-aminolevulinic Acid p-toluenesulfonate] has plants judged 2: A necrotic region was found on the leaf surface of 2 plants

# context switch: different compound, same plants judged 2: A necrotic region was found on the leaf surface
Per the record, Cl.NCC(=O)CCC(=O)O [5-aminolevulinic acid hydrochloride, reference compound] has plants judged 2: A necrotic region was found on the leaf surface of 4 plants

* * *

Recorded Coloring, a, one value per entry.
Test system: apple variety “Fuji”
assay_comment: Coloring test of apple
Format: in vivo
stated_conditions: 100 ppm (pH 5.0)
Field format: numeric only.

Per the record, NCC(=O)CCC(=O)O.O=P(O)(O)O [5-aminolevulinic acid phosphate, 5-aminolevulinic Acid Phosphate] has Coloring, a of 27.45

Per the record, NCC(=O)CCC(=O)O.O=[N+]([O-])O [5-aminolevulinic acid nitrate, 5-aminolevulinic Acid Nitrate] has Coloring, a of 26.51

***
Per the record, Cl.NCC(=O)CCC(=O)O [5-aminolevulinic acid hydrochloride, reference compound] has Coloring, a of 25.96

Per the record, Cc1ccc(S(=O)(=O)O)cc1.NCC(=O)CCC(=O)O [5-aminolevulinic acid p-toluenesulfonate, 5-aminolevulinic Acid p-toluenesulfonate] has Coloring, a of 26.44

* * *

System: radish
assay_comment: Plant activating effect, foliar application, radish
Format: in vivo
stated_conditions: 10 ppm in tap water; 21 days; 12 seeds
Recorded plants judged 0: Abnormality was not found on the leaf surface, one value per entry.
Just the number in plants, nothing appended.

Please review the following examples before continuing.
Per the record, O=[N+]([O-])[O-].[Na+] [sodium nitrate] has plants judged 0: Abnormality was not found on the leaf surface of 2

Per the record, Cc1ccc(S(=O)(=O)O)cc1.NCC(=O)CCC(=O)O [5-aminolevulinic acid p-toluenesulfonate, 5-aminolevulinic Acid p-toluenesulfonate] has plants judged 0: Abnormality was not found on the leaf surface of 5

Per the record, NCC(=O)CCC(=O)O.O=[N+]([O-])O [5-aminolevulinic acid nitrate, 5-aminolevulinic Acid Nitrate] has plants judged 0: Abnormality was not found on the leaf surface of 6

# context switch: different compound, same plants judged 0: Abnormality was not found on the leaf surface
Per the record, Cl.NCC(=O)CCC(=O)O [5-aminolevulinic acid hydrochloride, reference compound] has plants judged 0: Abnormality was not found on the leaf surface of 4
